system: HOP-62 NSCLC; assay: NCI tumour cell line growth inhibition, 48 h
Would you mind telling me the reported TGI of each entry?

The measured TGI associated with O=C(/C=C/c1ccccc1O)c1ccccc1Cl reads > 100 µM

The compound CCOC(=O)c1c(NC(=O)c2ccc(Cl)cc2)sc2c(CN(C)C)c(O)ccc12 showed TGI equal to 27.1 µM

Item: CCCNCCCCC(NC(C)=O)C(=O)NCc1ccccc1 (stereo unspecified) | TGI: > 100 µM

Short answer for CC(Oc1ccccc1Cl)C(=O)NN1C(=O)CC(=O)N(c2ccc(Cl)cc2)C1=S (stereo unspecified) : TGI was > 100 µM

TGI recorded for this compound, CCOC(=O)C(=CNc1ccc(F)c(F)c1)C(=O)OCC , is > 100 µM

The reported value for Cc1[nH]c(-c2ccccc2)c2nc(N(C)C)oc(=O)c12 in terms of TGI is > 100 µM

Input Cc1c(-c2ccccc2)[nH]c2cn[nH]c(=O)c12 . Output TGI: > 100 µM

Summary for this compound, CC1(C)OC[C@@H]([C@@]2(COC(c3ccccc3)(c3ccccc3)c3ccccc3)CC=CC(=O)O2)O1 : TGI is > 100 µM

Recorded TGI (compound CC1=NN(c2nc(N)nc(/C(C#N)=C\c3ccc(-c4ccc([N+](=O)[O-])cc4)o3)n2)C(C)(C)C1 ): 67.5 µM

response.value for COC(=O)C(=O)C(C(=O)C(=O)Nc1ccc(C)cc1C)c1nc2ccc(Cl)cc2[nH]c1=O (stereo unspecified) (field: TGI) = > 100 µM

Lab note: O=NNc1ccc(S(=O)(=O)c2ccc3ccccc3c2)cn1 gave TGI of > 100 µM

// TGI lookup, compound = Cc1ccc(-c2cc(-c3ccccc3)c(C#N)c(=O)[nH]2)cc1 , result: > 100 µM

Kindly note the recorded TGI for Oc1ccccc1C=Nc1ccc(-c2nc3ccccc3s2)cc1 , which is 52.2 µM

CC1(C)OC(=O)C(=C2CCC(C(=O)Nc3cccc(C(F)(F)F)c3)N2)C(=O)O1 (stereo unspecified) yielded TGI of > 100 µM

CCOc1ccc(NC(=O)C(=O)Nn2c(N)nnc2N)cc1 has a reported TGI of > 100 µM

Lab note: CCOc1ccc2cc(-c3nn(CC4CCNCC4)c4ncnc(N)c34)ccc2c1 gave TGI of 39.4 µM

Entry CC1=CCC(C(C)(C)NC(=O)c2ccccc2)C/C1=N/O (stereo unspecified) , TGI reported as > 100 µM

// recorded TGI for CC(Cn1c2c(c3cc(O)ccc31)CCc1ccc(O)cc1-2)N(C)C (stereo unspecified) : 31 µM

Lab note: measured TGI of C1=CC2CCC1CN2CCC1CNc2ccccc21 (stereo unspecified) was > 100 µM

Sample CSc1nc(=O)cnn1C ; TGI observed: > 100 µM

Reported TGI of CN(CCc1ccccn1)c1ccc2c(c1)C(=O)c1ccccc1-2 : > 100 µM
